Reference source: PubChem BioAssay (NCI)

# Test system: MDA-MB-435 melanoma
# protocol description: NCI-60 one-dose screen, 48 h (100 = growth as untreated, 0 = no growth, -100 = all killed)
# conditions used: 10 µM unless noted
About 83,000 compounds went through this panel and 20% of them were active in at least one assay; those are over-represented in the sample as a whole.
This listing pairs molecules with measured growth.
Field: numeric (%). Do not append units.

CCCCCCCCCCCCCC1=NCC[N+]1(CCO)Cc1ccccc1 (configuration not stated) ... -91.8

# input Give me measured growth, please, for this molecule: Cc1cc(C)cc(Nc2nccc(-c3c(-c4ccc(F)cc4)ncn3C3CCNCC3)n2)c1
# output -78.8

# input Give me measured growth, please, for this molecule: C[C@H]1[C@H](C)CC[C@]2(C(=O)OCCCC[P+](c3ccccc3)(c3ccccc3)c3ccccc3)CC[C@]3(C)C(=CC[C@@H]4[C@@]5(C)CC[C@H](OC(=O)C(Cl)Cl)C(C)(C)[C@@H]5CC[C@]43C)[C@H]12
# output -91.4

# input Give me measured growth, please, for this molecule: C=C(C)[C@@H]1CC[C@]2(C(=O)OCCCC[P+](c3ccccc3)(c3ccccc3)c3ccccc3)CC[C@]3(C)[C@H](CC[C@@H]4[C@@]5(C)CC[C@H](OC(=O)C(Cl)Cl)C(C)(C)[C@@H]5CC[C@]43C)[C@@H]12
# output -62.3

# input Give me measured growth, please, for this molecule: CNc1cccc2c1C(=O)c1cccc(N)c1C2=O
# output 36.1

# input Give me measured growth, please, for this molecule: Nc1ccc(C2=NN(C(=O)c3cc(-c4ccc(Cl)cc4)nc4ccccc34)C(c3ccccc3)C2)cc1 (configuration not stated)
# output -24.3

# input Give me measured growth, please, for this molecule: COc1cc(C(=O)N2CCN(c3ccccc3OC)CC2)c(NC(=O)c2cnccn2)cc1OCc1ccccc1
# output 95.1

# input Give me measured growth, please, for this molecule: COc1cc(C2=NNC(c3ccc(N(C)C)cc3)C2)cc(OC)c1OC (configuration not stated)
# output 19

# input Give me measured growth, please, for this molecule: COC(=O)/C=C/c1cc(OC(C)=O)c2c(c1)C(C(=O)OC)C(c1ccc(OC(C)=O)c(OC(C)=O)c1)O2 (configuration not stated)
# output -26.1
